All values here come from PubChem BioAssay AID248.

Test system: L1210 leukemia ip in BDF1 mice, survival T/C
assayMethodText: NCI In Vivo Anticancer Drug Screen. Data for tumor model L1210 Leukemia (intraperitoneal) in B6D2F1 (BDF1) mice
assayContext: endpoint: mean survival time; dose: 25.0 mg/kg/injection; schedule: Q04DX003 (ip); vehicle: saline; higher = longer survival
Procedure: The antitumor activity of compounds was measured in mice bearing transplantable tumors. Survival or tumor size were measured and the results are expressed as the measurement made in the treated group (T) divided by the measurement made in the vehicle treated control group (C). The tumor model used in this assay is L1210 Leukemia (intraperitoneal) in B6D2F1 (BDF1) mice
Toxic doses and inconclusive results are not listed.
Give measured T/C for each item. Keep answers brief.

INPUT: Given the compound CCCCCCCCN1CCCNCC1 , write its reported T/C.
OUTPUT: 121 % of control

INPUT: Recall and state the measured T/C for CN1CC(C(=O)N2CCCCC2)C=C2c3cccc4[nH]cc(c34)CC21 (stereo not drawn) .
OUTPUT: 100 % of control

INPUT: Identify T/C associated with the compound O=C1C=CC(=C(Br)Br)O1
OUTPUT: 95 % of control

INPUT: Using known records, supply T/C for CC(=O)NN(C)C(C)=O
OUTPUT: 120 % of control

INPUT: In one line, give reported T/C of the entry Cn1cnc([N+](=O)[O-])c1Sc1c[nH]c(=O)[nH]c1=O .
OUTPUT: 107 % of control

INPUT: Supply reported T/C belonging to this compound: COc1cc(C(=O)Nc2ccc(N(C)C)cc2)cc(OC)c1OC
OUTPUT: 108 % of control

INPUT: Supply T/C value. Item: CC(=O)OCC1OC(O)C(NC(=O)C(F)(F)F)C(OC(C)=O)C1OC(C)=O (stereo not drawn)
OUTPUT: 96 % of control

INPUT: Please supply the value of reported T/C for the item C[N+]1(C)Cc2ccccc2-c2ccccc2C1
OUTPUT: 94 % of control
